Just for reference, the supplement of paper PMC10567573 is where these values come from.

B1: EFHC1 (parent)
chain: NIYYYLEDDSMSVIEPVVENSGIL

Variants of: B1
Assay: protein stability index of a GFP-peptide fusion (GPS, HEK-293T) (PSI 1-6); higher = more stable;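 also: lentivirally expressed fusions sorted by FACS into six bins by GFP to DsRed ratio, PSI derived from sequencing read proportions per bin multiplied by bin number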
Details: c terminus: a fixed tail appended
observation_type: protein stability index

M11S	2.46
Y3A	2.85
G22N	2.25
V13Y	1.31
S12E	2.64
L6Q	2.84

**Query** Can you look up the measured protein stability index of `S12F` for me?
**Result** 2.77

**Query** // protein stability index lookup, key: `V17S`
**Result** 1.88

**Query** Give its protein stability index value. Item: `I2G`
**Result** 3.21

**Query** Tell me the measured protein stability index of `V18F` , please.
**Result** 1.85

**Query** Fill in: protein stability index of `I14W` is ___
**Result** 1.86
